Target: human TLR7 (Homo sapiens)
Construct: TLR7 in pUNO vector, blasticidin selection
Sequence (Q9NYK1 27-1049): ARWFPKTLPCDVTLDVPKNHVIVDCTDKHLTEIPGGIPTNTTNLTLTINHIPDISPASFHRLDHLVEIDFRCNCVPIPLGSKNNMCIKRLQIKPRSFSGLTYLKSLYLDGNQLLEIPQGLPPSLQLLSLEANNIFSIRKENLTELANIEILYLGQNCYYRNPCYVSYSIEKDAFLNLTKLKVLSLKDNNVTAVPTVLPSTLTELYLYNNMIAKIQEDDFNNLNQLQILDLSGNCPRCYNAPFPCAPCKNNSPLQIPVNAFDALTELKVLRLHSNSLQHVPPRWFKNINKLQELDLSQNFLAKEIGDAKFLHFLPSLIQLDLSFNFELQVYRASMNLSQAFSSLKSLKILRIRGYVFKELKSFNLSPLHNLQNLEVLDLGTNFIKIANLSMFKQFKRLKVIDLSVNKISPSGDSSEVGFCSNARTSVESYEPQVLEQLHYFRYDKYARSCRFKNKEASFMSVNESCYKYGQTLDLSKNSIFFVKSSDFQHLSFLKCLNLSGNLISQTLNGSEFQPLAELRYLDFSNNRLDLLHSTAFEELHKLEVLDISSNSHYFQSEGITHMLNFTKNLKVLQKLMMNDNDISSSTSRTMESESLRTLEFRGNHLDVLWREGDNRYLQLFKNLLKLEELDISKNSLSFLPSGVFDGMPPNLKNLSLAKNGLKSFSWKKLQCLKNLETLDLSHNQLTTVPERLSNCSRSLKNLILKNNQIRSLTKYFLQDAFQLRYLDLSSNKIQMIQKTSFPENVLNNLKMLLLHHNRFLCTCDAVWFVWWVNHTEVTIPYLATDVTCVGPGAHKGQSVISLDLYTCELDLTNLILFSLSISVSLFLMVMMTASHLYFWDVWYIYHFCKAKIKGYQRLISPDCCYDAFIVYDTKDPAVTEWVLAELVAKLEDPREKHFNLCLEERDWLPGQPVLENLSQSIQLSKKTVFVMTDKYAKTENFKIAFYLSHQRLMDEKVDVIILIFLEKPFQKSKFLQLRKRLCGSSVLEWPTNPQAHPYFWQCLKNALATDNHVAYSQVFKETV
Experiment: Human TLR7 Assay (SEAP reporter in HEK293 cells);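 note: Read-out is secreted alkaline phosphatase made under an NFkB/ELAM-1 composite promoter, reporting TLR7-triggered NFkB activation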
Details: HEK293 cell line expressing human TLR7 and pNiFty2-SEAP reporter, overnight incubation at 37° C., 0.1% DMSO; read-out: hTLR7 EC50
ASSAY ENDPOINT: EC50 (nM)

MOLECULAR STRING: COCCc1nc2c(N)nc3ccccc3c2n1CCCNC(=O)N(CCCN(C)C)Cc1ccc(OCC(=O)OC)cc1
ASSAY TARGET: human TLR7 (Homo sapiens)
ASSAY ENDPOINT: EC50
ENDPOINT UNIT: nM
MEASURED NUMBER: 188

P = CCCCc1nc2c(N)nc3ccccc3c2n1CCCN(Cc1cccc(OCC(=O)OC(C)C)c1F)C(=O)CN(CC)CC
Q = CCN(C)CC(=O)N(CCCn1c(CCOC)nc2c(N)nc3ccccc3c21)Cc1cccc(OC(C)(C)C(=O)OC)c1
R = CCOC(=O)COc1cccc(CN(CCCn2c(CCOC)nc3c(N)nc4ccccc4c32)C(=O)CN(C)CC)c1F
Please list these in order of increasing EC50. Thank you! Labels, ranked as asked. Q, P, R
